- Test system: PCB-495 (human epithelioid sarcoma primary culture)
Some compounds, each annotated with its measured IC50 cell viability.
readout-label: IC50 cell viability (µM)

smiles-text	readout-label	bound-sign	observed
CCOc1cc(C(C)(C)C)ccc1C1=N[C@@](C)(c2ccc(Cl)cc2)[C@@](C)(c2ccc(Cl)cc2)N1C(=O)N1CCN(CCCS(C)(=O)=O)CC1	IC50 cell viability	>	10
COc1ccc(C[C@@H](C)[C@@H](C)Cc2ccc(OC)c(OC)c2)cc1OC	IC50 cell viability	>	10
CN1CCC(CNc2ccc3ncc(-c4cccc(OC(F)(F)F)c4)n3n2)CC1	IC50 cell viability	=	7.51
Cc1[nH]c2ccccc2c1CCNCc1ccc(/C=C/C(=O)NO)cc1	IC50 cell viability	=	0.23

###

Each entry below carries its measured IC50 cell viability, system: PCB490-3 (human epithelioid sarcoma primary culture).
readout-label: IC50 cell viability

compound	readout-label	observed
COc1cc[nH]c1/C=C1\C(=O)Nc2ccc(F)c(I)c21	IC50 cell viability	> 100 µM
Cn1cc(C2=C(c3cccc(OC[C@H](O)CO)c3)C(=O)NC2=O)c2ccccc21	IC50 cell viability	> 100 µM
COc1ccc(O)c(C(=O)c2ccc(C(=O)N[C@@H]3CCCNC[C@H]3NC(=O)c3ccncc3)cc2)c1F	IC50 cell viability	> 100 µM
N#Cc1ccc(C(=O)c2cnn(-c3ccc(F)cc3)c2N)cc1	IC50 cell viability	> 100 µM
CS(=O)(=O)N1CCC(n2c(=O)c(Oc3ccc(F)cc3F)cc3cnc(NC4CCOCC4)nc32)CC1	IC50 cell viability	> 100 µM
Cn1cc(C2=C(c3cn(CCN)c4ccccc34)C(=O)NC2=O)c2ccccc21	IC50 cell viability	> 100 µM
COc1cc[nH]c1/C=C1\C(=O)Nc2ccc(F)c(C#C[C@@H](O)[C@@H](N)[C@@H](C)O)c21	IC50 cell viability	> 100 µM
Cn1c(=O)c(Oc2ccc(F)cc2F)cc2cnc(NC3CCC(O)CC3)nc21 (stereo unspecified)	IC50 cell viability	> 100 µM
CC(C)(O)Cn1c(=O)c(Oc2ccc(F)cc2F)cc2cnc(NC3CCOCC3)nc21	IC50 cell viability	2.86 µM
CC(C)(O)CCc1cccc(C(=O)c2cnn(-c3ccc(F)cc3)c2N)c1	IC50 cell viability	> 100 µM
COc1ccc(C2=C(c3cn(C)c4ccccc34)C(=O)NC2=O)cc1OC	IC50 cell viability	> 100 µM
CON=C1NC(=O)/C(=C/c2ccc3ncccc3c2)S1	IC50 cell viability	6.8 µM
OCCn1c(-c2ccncc2)c(-c2ccc(F)cc2)c2ncccc21	IC50 cell viability	> 100 µM
Cn1cc(C2=C(c3cn(CCCO)c4ccccc34)C(=O)NC2=O)c2ccccc21	IC50 cell viability	> 100 µM
COc1ccccc1CN=C1NC(=O)/C(=C/c2ccc3ncccc3c2)S1	IC50 cell viability	> 100 µM
O=C1NC(=N[C@@H]2C[C@H]2c2ccccc2)S/C1=C\c1ccc2ncccc2c1	IC50 cell viability	> 100 µM
Nc1c(C(=O)c2ccc(CCCN3CCOCC3)cc2)cnn1-c1ccc(F)cc1	IC50 cell viability	> 100 µM
Cn1c(=O)c(Oc2ccc(F)cc2F)cc2cnc(N[C@H]3CCOC3)nc21	IC50 cell viability	> 100 µM
Cn1cc(C2=C(N3CCOCC3)C(=O)NC2=O)c2ccccc21	IC50 cell viability	> 100 µM
NC1=NC(=O)/C(=C/c2ccc3ncccc3c2)S1	IC50 cell viability	> 100 µM
CN1CCN(CC#Cc2cccc(C(=O)c3cnn(-c4ccc(F)cc4)c3N)c2)CC1	IC50 cell viability	> 100 µM

All figures here come from the supplement of paper PMC6580486.
